# tgt: hNET (Homo sapiens)
# protocol-details: Norepinephrine (NE) uptake assay in MDCK-Net6 cells
# condition-context: [3H]NE uptake, MDCK-Net6 cells stably transfected with human hNET; test range 1 to 10,000 nM
Counter-ions that a name gives are not always drawn.

{"compound": "OC1(C(CN2CCN(CC3CC3)CC2)c2cccc(Cl)c2)CCCCC1 (stereo not shown) [Example 118, dihydrochloride]", "tgt": "hNET (Homo sapiens)", "units-symbol": "nM", "EC50": 57}
{"compound": "COc1ccc2cc(CN3CCN(CC(c4cccc(Cl)c4)C4(O)CCCCC4)CC3)ccc2c1 (stereo not shown) [Example 117, dihydrochloride]", "tgt": "hNET (Homo sapiens)", "units-symbol": "nM", "EC50": 61}
{"compound": "CCc1ccc(CN2CCN(CC(c3cccc(Cl)c3)C3(O)CCCCC3)CC2)o1 (stereo not shown) [Example 128, dihydrochloride]", "tgt": "hNET (Homo sapiens)", "units-symbol": "nM", "EC50": 490}
{"compound": "OC1(C(CN2CCN(Cc3cc4ccccc4o3)CC2)c2cccc(Cl)c2)CCCCC1 (stereo not shown) [Example 130, dihydrochloride]", "tgt": "hNET (Homo sapiens)", "units-symbol": "nM", "EC50": 890}

###

# tgt: hNET (Homo sapiens)
# Construct: expressed in transfected cells; host or cells: MDCK-Net6 (MDCK cells stably transfected with hNET)
# protocol-details: Norepinephrine (NE) uptake assay in MDCK-Net6 cells
# Assay type: cell-based
# condition-context: 1 μM test compound; [3H]NE uptake, MDCK-Net6 cells stably transfected with human hNET
Counter-ions that a name gives are not always drawn.

{"molecule": "COc1ccc2cc(CN3CCN(CC(c4cccc(Cl)c4)C4(O)CCCCC4)CC3)ccc2c1 (stereo not shown) [Example 117, dihydrochloride]", "tgt": "hNET (Homo sapiens)", "inhibition at 1 µM": "87%"}
{"molecule": "OC1(C(CN2CCN(CC3CCCCC3)CC2)c2cccc(Cl)c2)CCCCC1 (stereo not shown) [Example 126, dihydrochloride]", "tgt": "hNET (Homo sapiens)", "inhibition at 1 µM": "93%"}
{"molecule": "OC1(C(CN2CCN(Cc3ccc4ccccc4c3)CC2)c2cccc(Cl)c2)CCCCC1 (stereo not shown) [Example 124, dihydrochloride]", "tgt": "hNET (Homo sapiens)", "inhibition at 1 µM": "94%"}
{"molecule": "OC1(C(CN2CCN(Cc3ccncc3)CC2)c2cccc(Cl)c2)CCCCC1 (stereo not shown) [Example 133, dihydrochloride]", "tgt": "hNET (Homo sapiens)", "inhibition at 1 µM": "77%"}
{"molecule": "OC1(C(CN2CCN(Cc3ccc(OCc4ccccc4)cc3)CC2)c2cccc(Cl)c2)CCCCC1 (stereo not shown) [Example 131, dihydrochloride]", "tgt": "hNET (Homo sapiens)", "inhibition at 1 µM": "78%"}
{"molecule": "OC1(C(CN2CCN(Cc3cc4ccccc4o3)CC2)c2cccc(Cl)c2)CCCCC1 (stereo not shown) [Example 130, dihydrochloride]", "tgt": "hNET (Homo sapiens)", "inhibition at 1 µM": "79%"}
{"molecule": "CCc1ccc(CN2CCN(CC(c3cccc(Cl)c3)C3(O)CCCCC3)CC2)o1 (stereo not shown) [Example 128, dihydrochloride]", "tgt": "hNET (Homo sapiens)", "inhibition at 1 µM": "83%"}

###

# tgt: UniProt P23975
# protocol-details: Norepinephrine (NE) uptake assay in MDCK-Net6 cells
# condition-context: [3H]NE uptake, MDCK-Net6 cells stably transfected with human hNET; test range 1 to 10,000 nM
# Description: MDCK-Net6 cells, stably transfected with human hNET (Pacholczyk, T., R. D. Blakely, and S. G. Amara, Nature, 1991, 350(6316): p. 350-4) were cultured in growth medium containing high glucose DMEM (Gibco, Cat. No. 11995), 10% FBS (dialyzed, heat-inactivated, US Bio-Technologies, Lot FBD1129HI) and 500 μg/ml G418 (Gibco, Cat. No. 10131). Cells were plated at 300,000/T75 flask and cells were split twice weekly. […]
Structures can show the parent of a compound that is named as a salt.
Each record here notes measured EC50.
result-type: EC50 (nM)

{"compound": "OC1(C(CN2CCN(Cc3ccc(OCc4ccccc4)cc3)CC2)c2cccc(Cl)c2)CCCCC1 (stereo not shown) [Example 131, dihydrochloride]", "tgt": "UniProt P23975", "result-type": "EC50", "units-symbol": "nM", "recorded-number": 170}
{"compound": "OC1(C(CN2CCN(CC3CC=CCC3)CC2)c2cccc(Cl)c2)CCCCC1 (stereo not shown) [Example 119, dihydrochloride]", "tgt": "UniProt P23975", "result-type": "EC50", "units-symbol": "nM", "recorded-number": 110}
{"compound": "OC1(C(CN2CCN(Cc3ccncc3)CC2)c2cccc(Cl)c2)CCCCC1 (stereo not shown) [Example 133, dihydrochloride]", "tgt": "UniProt P23975", "result-type": "EC50", "units-symbol": "nM", "recorded-number": 460}
{"compound": "OC1(C(CN2CCN(Cc3ccnc4ccccc34)CC2)c2cccc(Cl)c2)CCCCC1 (stereo not shown) [Example 127, dihydrochloride]", "tgt": "UniProt P23975", "result-type": "EC50", "units-symbol": "nM", "recorded-number": 92}
{"compound": "OC1(C(CN2CCN(Cc3ccc(Oc4ccccc4)cc3)CC2)c2cccc(Cl)c2)CCCCC1 (stereo not shown) [Example 132, dihydrochloride]", "tgt": "UniProt P23975", "result-type": "EC50", "units-symbol": "nM", "recorded-number": 70}
{"compound": "OC1(C(CN2CCN(Cc3cccnc3)CC2)c2cccc(Cl)c2)CCCCC1 (stereo not shown) [Example 134, dihydrochloride]", "tgt": "UniProt P23975", "result-type": "EC50", "units-symbol": "nM", "recorded-number": 930}
{"compound": "OC1CCCC(CN2CCN(CC(c3cccc(Cl)c3)C3(O)CCCCC3)CC2)O1 (stereo not shown) [Example 120, dihydrochloride]", "tgt": "UniProt P23975", "result-type": "EC50", "units-symbol": "nM", "recorded-number": 130}

###

# tgt: hNET (Homo sapiens, UniProt P23975)
# Construct: expressed in transfected cells; host or cells: MDCK-Net6 (MDCK cells stably transfected with hNET)
# Sequence (P23975 whole entry): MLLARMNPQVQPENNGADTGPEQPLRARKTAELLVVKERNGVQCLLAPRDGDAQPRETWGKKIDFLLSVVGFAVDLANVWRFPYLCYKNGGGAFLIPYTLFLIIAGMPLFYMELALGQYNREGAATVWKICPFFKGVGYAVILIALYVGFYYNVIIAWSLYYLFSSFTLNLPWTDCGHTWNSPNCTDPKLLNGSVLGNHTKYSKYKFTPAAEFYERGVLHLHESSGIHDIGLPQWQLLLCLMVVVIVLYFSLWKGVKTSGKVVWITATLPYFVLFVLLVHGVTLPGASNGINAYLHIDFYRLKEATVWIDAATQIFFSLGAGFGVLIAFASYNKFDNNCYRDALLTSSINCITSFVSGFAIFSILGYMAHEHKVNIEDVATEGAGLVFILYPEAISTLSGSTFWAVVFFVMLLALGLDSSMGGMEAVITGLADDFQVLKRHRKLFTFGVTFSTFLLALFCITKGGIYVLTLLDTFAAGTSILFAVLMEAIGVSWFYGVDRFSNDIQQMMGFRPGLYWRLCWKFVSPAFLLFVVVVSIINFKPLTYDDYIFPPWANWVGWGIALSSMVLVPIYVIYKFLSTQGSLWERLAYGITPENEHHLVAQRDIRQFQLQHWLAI
# protocol-details: Norepinephrine (NE) uptake assay in MDCK-Net6 cells
# Assay type: cell-based
# condition-context: 1 μM test compound; [3H]NE uptake, MDCK-Net6 cells stably transfected with human hNET
Structures can show the parent of a compound that is named as a salt.
result-type: inhibition at 1 µM (%)

{"molecule": "OC1(C(CN2CCN(Cc3cccc(Oc4ccccc4)c3)CC2)c2cccc(Cl)c2)CCCCC1 (stereo not shown) [Example 123, dihydrochloride]", "recorded-number": 96}
{"molecule": "CC(CCN1CCN(CC(c2cccc(Cl)c2)C2(O)CCCCC2)CC1)c1ccccc1 (stereo not shown) [Example 121, dihydrochloride]", "recorded-number": 97}
{"molecule": "OC1(C(CN2CCN(Cc3ccc(Oc4ccccc4)cc3)CC2)c2cccc(Cl)c2)CCCCC1 (stereo not shown) [Example 132, dihydrochloride]", "recorded-number": 77}
{"molecule": "OC1(C(CN2CCN(CC3CC=CCC3)CC2)c2cccc(Cl)c2)CCCCC1 (stereo not shown) [Example 119, dihydrochloride]", "recorded-number": 97}
{"molecule": "OC1CCCC(CN2CCN(CC(c3cccc(Cl)c3)C3(O)CCCCC3)CC2)O1 (stereo not shown) [Example 120, dihydrochloride]", "recorded-number": 97}
{"molecule": "OC1(C(CN2CCN(CCc3ccccc3)CC2)c2cccc(Cl)c2)CCCCC1 (stereo not shown) [Example 122, dihydrochloride]", "recorded-number": 96}
{"molecule": "OC1(C(CN2CCN(CC3CC3)CC2)c2cccc(Cl)c2)CCCCC1 (stereo not shown) [Example 118, dihydrochloride]", "recorded-number": 97}
